src = patent US11566029B2

TARGET UNDER TEST: CDK7/CycH/MAT1 (Homo sapiens, UniProt P50613)
Sequence (P50613 whole entry): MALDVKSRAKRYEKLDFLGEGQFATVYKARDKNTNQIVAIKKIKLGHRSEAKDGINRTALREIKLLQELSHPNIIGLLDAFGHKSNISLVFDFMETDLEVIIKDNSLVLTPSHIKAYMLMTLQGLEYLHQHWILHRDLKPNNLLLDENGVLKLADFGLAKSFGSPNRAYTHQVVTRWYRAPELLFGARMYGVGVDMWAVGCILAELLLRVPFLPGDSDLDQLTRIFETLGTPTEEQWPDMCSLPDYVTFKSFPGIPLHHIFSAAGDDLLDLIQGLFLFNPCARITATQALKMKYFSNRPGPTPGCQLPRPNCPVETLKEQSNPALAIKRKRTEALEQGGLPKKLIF
Sequence (P51946 whole entry partner): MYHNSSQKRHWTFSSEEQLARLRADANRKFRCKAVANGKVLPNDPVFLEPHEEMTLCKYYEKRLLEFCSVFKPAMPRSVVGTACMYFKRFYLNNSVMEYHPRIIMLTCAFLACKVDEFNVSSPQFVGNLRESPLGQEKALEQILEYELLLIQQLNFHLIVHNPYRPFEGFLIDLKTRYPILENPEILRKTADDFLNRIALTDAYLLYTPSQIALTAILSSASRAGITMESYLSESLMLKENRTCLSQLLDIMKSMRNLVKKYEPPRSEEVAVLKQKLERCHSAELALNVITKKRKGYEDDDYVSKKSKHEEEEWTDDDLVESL
Sequence (P51948 whole entry partner): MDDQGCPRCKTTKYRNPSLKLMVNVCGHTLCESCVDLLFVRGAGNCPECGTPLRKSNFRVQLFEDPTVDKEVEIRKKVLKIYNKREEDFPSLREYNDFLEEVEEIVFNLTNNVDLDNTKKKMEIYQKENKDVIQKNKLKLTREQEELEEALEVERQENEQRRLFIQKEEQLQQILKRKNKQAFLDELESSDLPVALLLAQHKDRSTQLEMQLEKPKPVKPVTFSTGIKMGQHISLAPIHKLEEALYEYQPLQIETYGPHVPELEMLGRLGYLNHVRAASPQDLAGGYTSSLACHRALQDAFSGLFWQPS
EXPERIMENT DESCRIPTION: In vitro kinase assay (PKLight luciferase ATP readout), CDK7
SETTINGS: ATP at Km; read-out: In vitro Kinase Inhibition CDK7 IC50
Structures can show the parent of a compound that is named as a salt.
Item-by-item account of IC50
Phrase the answer as number then unit, nothing more needed.

MOLECULE: CC(C)c1cnn2c(NCc3ccncc3)cc(NC[C@@]3(CO)CCNC3)nc12 (racemic)
TARGET UNDER TEST: CDK7/CycH/MAT1 (Homo sapiens, UniProt P50613)
IC50: 44 nM
//
MOLECULE: CO[C@@H]1CCNCC1Nc1cc(NCc2ccccc2)n2ncc(C(C)C)c2n1 (stereo partly drawn)
TARGET UNDER TEST: CDK7/CycH/MAT1 (Homo sapiens, UniProt P50613)
IC50: 60 nM
//
MOLECULE: CC(C)c1cnn2c(NCc3ccccc3)cc(NC[C@@H]3C[C@@H](O)CN3)nc12
TARGET UNDER TEST: CDK7/CycH/MAT1 (Homo sapiens, UniProt P50613)
IC50: 59 nM
//
MOLECULE: CC(C)c1cnn2c(NCc3ccccc3)cc(N[C@@H]3CNCC[C@H]3O)nc12
TARGET UNDER TEST: CDK7/CycH/MAT1 (Homo sapiens, UniProt P50613)
IC50: 73 nM
//
MOLECULE: CC(C)c1cnn2c(NCc3ccncc3)cc(NC[C@H]3CCNC[C@@H]3O)nc12 [PPDA-003, hydrochloride]
TARGET UNDER TEST: CDK7/CycH/MAT1 (Homo sapiens, UniProt P50613)
IC50: 47 nM

Prompt: # input molecule: CC(C)c1cnn2c(Nc3csc4ccccc34)cc(NC[C@H]3CCNC[C@@H]3O)nc12 ; wanted: its IC50
Completion: 120 nM
